Data provenance: ChEMBL document CHEMBL1136777

- study-target: Tubulin (Bos taurus, UniProt Q6B856+Q862F3)
- Sequence (Q6B856 whole entry): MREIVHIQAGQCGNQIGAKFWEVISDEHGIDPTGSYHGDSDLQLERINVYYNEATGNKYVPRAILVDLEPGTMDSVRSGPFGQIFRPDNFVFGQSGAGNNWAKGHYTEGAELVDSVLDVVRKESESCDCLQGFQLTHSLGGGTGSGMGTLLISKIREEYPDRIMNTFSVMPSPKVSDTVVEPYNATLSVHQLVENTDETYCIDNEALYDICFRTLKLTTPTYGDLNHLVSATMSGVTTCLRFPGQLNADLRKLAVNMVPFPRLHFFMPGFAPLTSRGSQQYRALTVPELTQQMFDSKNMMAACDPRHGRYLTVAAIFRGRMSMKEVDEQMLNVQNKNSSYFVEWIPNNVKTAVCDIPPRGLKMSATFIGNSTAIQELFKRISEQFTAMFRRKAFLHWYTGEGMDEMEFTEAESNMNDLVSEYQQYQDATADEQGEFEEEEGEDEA
- Sequence (Q862F3 whole entry): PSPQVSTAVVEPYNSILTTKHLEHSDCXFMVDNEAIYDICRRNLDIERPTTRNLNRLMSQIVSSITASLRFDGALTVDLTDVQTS
- assay: Inhibition of tubulin polymerization was determined at 1.2 mg/mL concentration
The entries below are paired with their reported pIC50.
Formally, pIC50 is defined as -log10 of the concentration c, with c in mol/L.

Check out these entries, answers already filled in.
O=C(NCCc1ccccc1)c1cc(/C=C\c2cc(O)ccc2O)ccc1O	5.27
O=C(NCCc1ccccc1)c1cc(C#Cc2cc(O)ccc2O)ccc1O	5.43
O=C(NCCc1ccc(F)cc1)c1cc(CCc2cc(O)ccc2O)ccc1O	5.01
CCCCCCNC(=O)c1cc(/C=C\c2cc(O)ccc2O)ccc1O	5.38
O=C(NCCc1ccccc1)c1cc(CCc2cc(O)ccc2O)ccc1O	5.26

## Input Report pIC50 for CCCCCCNC(=O)c1cc(CCc2cc(O)ccc2O)ccc1O please.
## Output 5.21
